- assay-method-text: Growth inhibition of BHK21 cells at 1 uM incubated for 48 hrs by SRB assay relative to control
- Assay type: cell-based, Mesocricetus auratus, BHK-21
- experimental-conditions: hamster, read-out: GI
endpoint: inhibition at 48 h, 1 µM (%)
Number only, in %; omit the unit.

Exam item: // returns reported inhibition at 48 h, 1 µM for input Cc1cc(C)cc(-n2c(-c3cc4ccccc4oc3=O)cs/c2=N/NC(=O)c2cc3ccccc3oc2=O)c1
Marked response: 59.4

----------
- assay-method-text: Antioxidant activity assessed as superoxide anion radical scavenging activity by cyclic voltammetric analysis
- Assay type: functional
endpoint: pIC50
FYI, pIC50 means -log10 of a concentration in mol per litre.

Exam item: May I ask what pIC50 has been recorded for O=C(OCc1cc(=O)oc2c(O)c(O)ccc12)c1cc(O)c(O)c(O)c1 ?
Marked response: 4.19
